- System: ML-2
- Experimental details: Acetylome analysis (Acetyl-K enrichment, LC-MS/MS)
- Format: cell-based, human
- Recorded conditions: ML-2 (Fig 4C)
Please provide measured Acetyl-K sites: Non-regulated, % for the entries that follow.
Give bare numbers, in %.

Reference set, count: 2
Data request, read-out Acetyl-K sites: Non-regulated, %, for Cc1[nH]c2ccccc2c1CCNCc1ccc(/C=C/C(=O)NO)cc1 [Panobinostat, reference compound]
82.3

Data request, read-out Acetyl-K sites: Non-regulated, %, for "COc1cc2nc(-c3cc(C)oc3C)cc(NCC3CCN(c4ncc(C(=O)NO)cn4)CC3)c2cc1OC"
79.7

// for each compound in input: emit Acetyl-K sites: Non-regulated, %
1. O=C(CCCCCCC(=O)Nc1ccccc1)NO [Vorinostat, reference compound]
2. COc1cc2nc(-c3ccc(C)o3)cc(NCC3CCN(c4ncc(C(=O)NO)cn4)CC3)c2cc1OC

1: 85.9; 2: 77.2

###

- Target system: HDAC6 (Homo sapiens)
- Sequence (Q9UBN7 whole entry): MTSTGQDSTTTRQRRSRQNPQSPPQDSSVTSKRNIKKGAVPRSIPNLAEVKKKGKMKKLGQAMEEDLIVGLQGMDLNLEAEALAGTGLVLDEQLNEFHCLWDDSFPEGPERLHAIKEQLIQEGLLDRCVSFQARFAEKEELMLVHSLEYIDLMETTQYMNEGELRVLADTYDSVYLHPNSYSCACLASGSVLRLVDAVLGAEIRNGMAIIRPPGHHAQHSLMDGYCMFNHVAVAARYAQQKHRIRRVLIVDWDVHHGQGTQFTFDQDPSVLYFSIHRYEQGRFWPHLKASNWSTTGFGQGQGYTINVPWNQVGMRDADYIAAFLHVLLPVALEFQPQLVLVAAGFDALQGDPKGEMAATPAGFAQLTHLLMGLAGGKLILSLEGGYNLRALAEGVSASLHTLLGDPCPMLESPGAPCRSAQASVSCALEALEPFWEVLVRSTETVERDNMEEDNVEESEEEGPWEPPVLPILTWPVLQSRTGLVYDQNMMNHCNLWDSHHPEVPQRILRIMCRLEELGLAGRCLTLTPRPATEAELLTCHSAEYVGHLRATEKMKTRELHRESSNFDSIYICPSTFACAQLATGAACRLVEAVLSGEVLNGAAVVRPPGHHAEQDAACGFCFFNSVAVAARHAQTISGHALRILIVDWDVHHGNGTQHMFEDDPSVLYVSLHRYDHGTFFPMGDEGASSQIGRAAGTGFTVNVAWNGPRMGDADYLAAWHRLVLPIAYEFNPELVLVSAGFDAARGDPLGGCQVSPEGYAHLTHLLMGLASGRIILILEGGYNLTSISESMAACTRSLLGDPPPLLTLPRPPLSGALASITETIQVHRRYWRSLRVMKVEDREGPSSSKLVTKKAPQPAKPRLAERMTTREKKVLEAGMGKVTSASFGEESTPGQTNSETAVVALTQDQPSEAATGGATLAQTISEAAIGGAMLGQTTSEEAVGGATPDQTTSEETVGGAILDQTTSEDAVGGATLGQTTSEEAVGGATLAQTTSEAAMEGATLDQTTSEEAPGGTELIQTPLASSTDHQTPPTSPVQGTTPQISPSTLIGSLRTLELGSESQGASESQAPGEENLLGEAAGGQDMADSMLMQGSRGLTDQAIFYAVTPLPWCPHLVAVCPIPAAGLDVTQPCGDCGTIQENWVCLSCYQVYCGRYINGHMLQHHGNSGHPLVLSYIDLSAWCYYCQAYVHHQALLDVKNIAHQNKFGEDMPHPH
- Experimental details: HDAC enzymatic assay, fluorescence-labeled substrate
- Format: biochemical
- Recorded conditions: read-out: IC50
Please provide measured pIC50 for the entries that follow.
Numbers only, as −log10 of the molar value.

API: value(readout= pIC50, system= HDAC6 (Homo sapiens), query= "COc1cc2nc(-c3ccc(C)o3)cc(NCC3CCN(c4ncc(C(=O)NO)cn4)CC3)c2cc1OC" )
6.27

Next up:
API: value(readout= pIC50, system= HDAC6 (Homo sapiens), query= "COc1cc2nc(-c3cc(C)oc3C)cc(NCC3CCN(c4ncc(C(=O)NO)cn4)CC3)c2cc1OC" )
6.59

###

- Experimental details: Pharmacokinetic study in plasma samples
- Format: in vivo, mouse
- Recorded conditions: RAG-2, mouse, plasma, ip; 10 mg/kg i.p., mice, NCA, mean; read-out: Vz/F
Quantity: Vd/F (L)
Numbers only, in L.

Data request, read-out Vd/F, for "COc1cc2nc(-c3cc(C)oc3C)cc(NCC3CCN(c4ncc(C(=O)NO)cn4)CC3)c2cc1OC"
0.72

###

- Test system: ML-2
- Experimental details: Acetylome analysis (Acetyl-K enrichment, LC-MS/MS)
- Format: cell-based, human
- Recorded conditions: ML-2 (Fig 4C)
Quantity: Acetyl-K sites: Non-regulated, Number
Give bare numbers.

Reference set, count: 2
Data request, read-out Acetyl-K sites: Non-regulated, Number, for Cc1[nH]c2ccccc2c1CCNCc1ccc(/C=C/C(=O)NO)cc1 [Panobinostat, reference compound]
2979

Data request, read-out Acetyl-K sites: Non-regulated, Number, for COc1cc2nc(-c3ccc(C)o3)cc(NCC3CCN(c4ncc(C(=O)NO)cn4)CC3)c2cc1OC [CM-444]
2794

// for each compound in input: emit Acetyl-K sites: Non-regulated, Number
1. COc1cc2nc(-c3cc(C)oc3C)cc(NCC3CCN(c4ncc(C(=O)NO)cn4)CC3)c2cc1OC [CM-1758]
2. O=C(CCCCCCC(=O)Nc1ccccc1)NO [Vorinostat, reference compound]

1. 2882
2. 3109

###

Please provide measured CD11b (%) Replicate 1 for the entries that follow.
- Test system: HL-60
- Experimental details: Differentiation-apoptosis assay, CD11b / annexin-V / Sytox Green / myeloid markers flow cytometry
- Type: cell-based, human
- Recorded conditions: HL-60, daily 25% GI50, 48 h
Numbers only, in %.

Reference set, count: 8
Data request, read-out CD11b (%) Replicate 1, for "COc1cc2nc(-c3cc(C)oc3C)cc(NCC3CCN(c4ncc(C(=O)NO)cn4)CC3)c2cc1OC"
55.36

Data request, read-out CD11b (%) Replicate 1, for Cc1[nH]c2ccccc2c1CCNCc1ccc(/C=C/C(=O)NO)cc1 [Panobinostat, reference compound]
12.07

Data request, read-out CD11b (%) Replicate 1, for COc1cc2c(cc1OCCCN1CCCC1)N=C(N)C21CCC1 [Compound A-366, A-366, reference compound]
9.70

Data request, read-out CD11b (%) Replicate 1, for "COc1cc2c(NC3CCN(C)CC3)cc(-c3ccc(C)o3)nc2cc1OCCCN1CCCC1"
1.50

Data request, read-out CD11b (%) Replicate 1, for CCCc1nn(C)c2c(=O)[nH]c(-c3cc(S(=O)(=O)N4CCN(C)CC4)ccc3OCC)nc12 [Sildenafil, reference compound]
0.00

Data request, read-out CD11b (%) Replicate 1, for Nc1ncn([C@H]2C[C@H](O)[C@@H](CO)O2)c(=O)n1 [Decitabine, reference compound]
7.50

Data request, read-out CD11b (%) Replicate 1, for "COc1cc2nc(-c3ccc(C)o3)cc(NCC3CCN(c4ncc(C(=O)NO)cn4)CC3)c2cc1OC"
86.24

Data request, read-out CD11b (%) Replicate 1, for "COc1cc2c(NCC3CCN(C)CC3)cc(-c3ccc(C)o3)nc2cc1OCCCN1CCCC1"
0.00

Next up:
Data request, read-out CD11b (%) Replicate 1, for CC1=C(/C=C/C(C)=C/C=C/C(C)=C/C(=O)O)C(C)(C)CCC1 [ATRA, all-trans retinoic acid, reference compound]
10.12
